assay: Plasma stability, human plasma; conditions: human plasma, 37° C., timepoint 0 h
Bridge positions count the residues as written; N and C are the ends. Peptide text beside a SMILES is read from it.
measure: Mean (compound concentration)
Provide a numeric answer; units are not to be included.

Query (compound): CC(=O)N[C@@H](CO)C(=O)N[C@@H](CCCNC(=N)N)C(=O)N[C@@H](CC(C)C)C(=O)N[C@@H](CCC(=O)O)C(=O)N[C@@H](CCC(=O)O)C(=O)N[C@@H](CCC(=O)O)C(=O)N[C@@H](CC(C)C)C(=O)N[C@@H](CCCNC(=N)N)C(=O)N[C@H]1CCCCNC(=O)CC[C@@H](C(N)=O)NC(=O)[C@H]([C@@H](C)O)NC(=O)[C@H](CC(C)C)NC(=O)[C@H](CCCNC(=N)N)NC1=O [SD15193] (Ac-SRLEEELRKRLTE-NH2; lactam 9-13) ; field requested: Mean (compound concentration)
2.81

Values compiled from patent US20250154202A1.
